// data source = PubChem BioAssay AID1159580

Experiment notes: chemical genetic growth profiling, strain panel (AID 1159580);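 further: tested at 20 µM; growth read once vehicle control cultures reached saturation at 30 °C; 1 = growth at the plate median or of vehicle wells; lower values mean less growth of the strain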
Condition description: S. cerevisiae deletion strains, growth OD, locus YBR231C, strain swc5, active compounds read low
Hit rate of the full screen: of about 5,500 compounds, about 2,000 (36%) were called active. Roughly 18% stayed inconclusive and do not appear here. This is one part of the list.
Measured parameter: normalized growth
API doc: respond with a numeric literal and nothing else, no unit.

Q) Specify measured normalized growth for CC(=O)[C@@]1(O)CCC2C3CCC4=CC(=O)CC[C@]4(C)C3CC[C@@]21C (stereo partly specified) .
A) 0.999

* * *

Experiment notes: chemical genetic growth profiling, strain panel (AID 1159580);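 further: tested at 20 µM; growth read once vehicle control cultures reached saturation at 30 °C; 1 = growth at the plate median or of vehicle wells; lower values mean less growth of the strain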
Condition description: S. cerevisiae deletion strains, growth OD, locus YGR252W, strain gcn5, active compounds read low
Among all 5,500 compounds or so, about 2,000 (36%) were called active. Not shown: some 18% with an inconclusive outcome. Some of the results follow.
normalized growth values by entry
API doc: respond with a numeric literal and nothing else, no unit.

Q) Specify measured normalized growth for CCc1cccc2c3c([nH]c12)C(CC)(CC(=O)O)OCC3 (stereo unspecified) .
A) 1

Q) Specify measured normalized growth for CC(N)C(O)c1ccc(O)c(O)c1 (stereo unspecified) .
A) 0.901

Q) Specify measured normalized growth for C=C(C)[C@@H]1CC[C@]2(CO)CC[C@]3(C)[C@H](CCC4[C@@]5(C)CC[C@H](O)C(C)(C)C5CC[C@]43C)C12 (stereo partly specified) .
A) 1.05

Q) Specify measured normalized growth for `COc1cccc(O)c1O` .
A) 0.936

Q) Specify measured normalized growth for `CCC1(CC)C(=O)C=CNC1=O` .
A) 0.996

Q) Specify measured normalized growth for `CN(C)CCc1c[nH]c2ccc(CS(=O)(=O)N3CCCC3)cc12` .
A) 1.03
